biological target: CIB1 and αIIb interaction (GST-CIB1 : F-αIIb peptide) (Homo sapiens, UniProt Q99828); construct: made in house; host or cells: BL-21 plus RIL cells (E. coli); assay: FP assay, 384-well format (screen); type: binding; details: F-αIIb peptide; read-out: 384-well SCREEN IC50
pIC50: −log10 of the molar value.
Reported values of pIC50 for individual entries
measured endpoint: pIC50

* Cc1ccc(S(=O)(=O)Nc2cnccc2C(=O)Nc2nc3ccccc3s2)cc1.O=C(O)C(F)(F)F | 4.90
* CCc1nnc(NS(=O)(=O)c2ccc(NC(=S)NC(=O)/C=C/c3ccc(F)cc3)cc2)s1 | 5.35
* Brc1c(Br)c(Br)c2[nH]nnc2c1Br [NCGC00092352-04, 4,5,6,7-tetrabromobenzotriazole, reference compound] | 5.33
* OCCN(CCO)c1nc(N2CCCCC2)c2nc(N(CCO)CCO)nc(N3CCCCC3)c2n1 | 4.65
* Cc1c(C)n(Cc2ccc(-c3ccccc3C(=O)O)cc2)c2ccc(C(=O)N[C@@H](C)c3ccc([N+](=O)[O-])cc3)cc12 | 4.90
* CSC(Cc1ccc(Cl)cc1)C(=O)Nc1ccc(Cl)cc1C(=O)O.O=C(O)C(F)(F)F (stereo not shown) | 3.92
* COc1cc(C(=O)NS(=O)(=O)c2ccccc2C)ccc1Cc1cn(C)c2ccc(NC(=O)OC3CCCC3)cc12 | 5.02

====

target: GST-CIB1 : F-αIIb peptide (Homo sapiens); construct: made in house; host or cells: BL-21 plus RIL cells (E. coli); assay: FP assay in the presence of glutathione (GSH), thiol reactivity; type: binding; settings: FP assay in the presence of glutathione (GSH +); read-out: GSH (+) Assay IC50
Sequence (Q99828 whole entry): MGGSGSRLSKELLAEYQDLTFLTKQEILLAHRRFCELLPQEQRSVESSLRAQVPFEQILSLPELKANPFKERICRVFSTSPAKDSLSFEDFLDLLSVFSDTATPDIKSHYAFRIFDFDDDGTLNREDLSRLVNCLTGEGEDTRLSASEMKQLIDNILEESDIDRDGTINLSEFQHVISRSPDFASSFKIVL
pIC50: −log10 of the molar value.
measured endpoint: pIC50

* CC(C)=CCC[C@]1(C)C=Cc2c(O)c3c(c(CC=C(C)C)c2O1)O[C@]12C(=C[C@@H]4CC1C(C)(C)O[C@@]2(C/C=C(/C)C(=O)O)C4=O)C3=O | 5.62
* COc1cccc(-n2c(SCc3cc(=O)oc4cc(O)c(O)cc34)nc3ccccc3c2=O)c1.O=C(O)C(F)(F)F | 4.80
* O=c1[nH]sc2cc(Cl)ccc12 [NCGC00262908-01, ticlatone, reference compound] | 4.99

====

target: CIB1 and αIIb interaction (CIB1-GST : F-αIIb peptide) (Homo sapiens); construct: made in house; host or cells: BL-21 plus RIL cells (E. coli); assay: FP assay, 1536-well qHTS format (primary and confirmatory screen); assay type: binding; details: qHTS primary screen hits, Table S2; negative = inhibition
Class (by Efficacy (%)) -- bottom range = under -50%, center range = from -50% up to -30%, top range = -30% and over

• Cc1ccc(-c2cc(-c3nn(-c4nc(C(=O)O)cs4)c(CC4CC4)c3Cc3ccc(S(N)(=O)=O)c(F)c3)ccc2F)o1 = center range
• O=C1NC(=O)/C(=C/c2ccc3c(c2)OC(F)(F)O3)S1 = center range
• CC(=O)N1CCN(c2ccc(OCc3nn(C)c(C)c3-c3cccc4c(CCCOc5cccc6ccccc56)c(C(=O)O)n(Cc5cccnc5)c34)cc2)CC1 = center range
• COc1cc(NS(=O)(=O)c2ccc([N+](=O)[O-])cc2)c2ncccc2c1 = center range
• O=C(O)C(F)(F)F.O=C1CCCC2=C1C(c1ccncc1)N=C(Nc1nc3ccccc3o1)N2 (centres unmarked) = center range
• COC(=O)c1scc2c(O)cc(C(F)(F)F)nc12 = bottom range
• COc1cccc2c1C(=O)c1c(O)c3c(c(O)c1C2=O)C[C@@](O)(C(C)=O)C[C@@H]3O[C@H]1C[C@H](N)[C@H](O)[C@H](C)O1 = bottom range
• O=C(O)C(F)(F)F.OC(CN1CCCCC1)Cn1c2ccc(Cl)cc2c2cc(Cl)ccc21 (centres unmarked) = center range
• CC[C@@]1(O)C(=O)OCc2c1cc1n(c2=O)Cc2cc3c(CN(C)C)c(O)ccc3nc2-1 = bottom range
• O=C(O)C(F)(F)F.O=S(=O)(Nc1nccs1)c1ccc(Nc2nc(-c3ccccc3)cs2)cc1 = bottom range
• Cc1cc(OCCCc2c(C(=O)O)n(Cc3cccnc3)c3c(-c4c(COc5ccc(N6CCN(S(C)(=O)=O)CC6)cc5)nn(C)c4C)cccc23)cc(C)c1Cl = top range
• N#Cc1ccc(NS(=O)(=O)c2ccc(NC(=O)Cc3ccc(F)c(Cl)c3)cc2)cc1.O=C(O)C(F)(F)F = top range
• Cl.O=[N+]([O-])c1ccc(CNc2ccc(S(=O)(=O)Nc3nccs3)cc2)c(O)c1 = top range

====

biological target: CIB1 and αIIb interaction (CIB1-GST : F-αIIb peptide) (Homo sapiens, UniProt Q99828); construct: made in house; host or cells: BL-21 plus RIL cells (E. coli); test: FP assay, 1536-well qHTS format (primary and confirmatory screen); format: binding; details: qHTS primary screen hits, Table S2; read-out: IC50
Reported values of IC50 for individual entries
measured endpoint: IC50 (µM)

* O=C(O)C1=CC(=C(c2ccc(O)c(C(=O)O)c2)c2ccc(O)c(C(=O)O)c2)C=CC1=O [NCGC00015040-05] | 3.2
* COc1ccc(Br)cc1S(=O)(=O)NC(=O)/C=C/c1ccccc1Cc1ccc2ccccc2c1 [NCGC00260960-01] | 22.4
* CN(C)CCCNC(=O)c1ccc(-c2cc(O)c3ncccc3c2)cc1 [NCGC00183808-07] | 30.2
* Cc1ccc([N+](=O)[O-])[c]2c1[O][Hg]2 [NCGC00249897-01] | 3.5
* O=C(O)C(F)(F)F.OC(CN1CCCCC1)Cn1c2ccc(Cl)cc2c2cc(Cl)ccc21 (stereo not shown) [NCGC00356030-01] | 79.4
* NC(=O)c1ncn([C@@H]2O[C@H](CO)[C@@H](O)[C@H]2O)c1O [NCGC00094087-05] | 20
* CC(C)(C)OC(=O)c1csc(-n2nc(-c3ccc(F)c(F)c3)c(-c3ccccc3)c2O)n1.O=C(O)C(F)(F)F [NCGC00356364-01] | 56.2
* CC1(C)OB(c2ccc(O)c3ncc(N4CCNCC4)cc23)OC1(C)C.O=C(O)C(F)(F)F [NCGC00241053-01] | 50.1
* CCC(C)(C)n1nnnc1C(c1cc2ccc(OC)cc2[nH]c1=O)N1CCc2ccccc2C1.O=C(O)C(F)(F)F (stereo not shown) [NCGC00350929-01] | 56.2
* Oc1ccc2ccccc2c1SSc1c(O)ccc2ccccc12 [NCGC00186047-02, IPA-3, reference compound] | 10.3
* Cl.NC(CO)(CO)CCc1ccc(Sc2cccc(OCc3ccccc3)c2)cc1Cl [NCGC00250388-02] | 79.4
* O=C([O-])c1c(Cl)c(Cl)c(Cl)c(Cl)c1-c1c2cc(I)c(=O)c(I)c-2oc2c(I)c(O)c(I)cc12.[Na+] [NCGC00159508-05] | 13.6
* CN(N=O)c1cc(O)ccc1O [NCGC00015372-04] | 50.1
* Cc1ccc(Cl)c(Nc2ccccc2C(=O)O)c1Cl [NCGC00023217-06] | 44.7
* Cc1c2c(=O)n(-c3ccccc3)[nH]c2cc(=O)n1Cc1ccncc1.O=C(O)C(F)(F)F [NCGC00248478-01] | 50.1
* CC(=O)O.Cc1ccc(OCCn2c(CCNC(=O)c3ccc(N)cc3)nc3ccccc32)cc1 [NCGC00241723-01] | 44.7

====

target: GST-CIB1 : F-scrambled peptide (Homo sapiens, UniProt Q99828); construct: made in house; host or cells: BL-21 plus RIL cells (E. coli); experiment: FP scrambled-peptide counter screen, 1536-well format; assay type: binding; conditions: scrambled-peptide counterscreen
Sequence (Q99828 whole entry): as above
measured endpoint: COUNTERSCREEN Efficacy (%)

* O=c1[nH]sc2cc(Cl)ccc12 [NCGC00262908-01, ticlatone, reference compound] | 10
* CCCCCc1c2c(cc(O)c1C(=O)O)OC(=O)c1c(cc(OC)cc1C(=O)CCCC)O2.O=C(O)C(F)(F)F [NCGC00095570-05] | -14
* Cc1ccc(-c2cc(-c3nn(-c4nc(C(=O)O)cs4)c(CC4CC4)c3Cc3ccc(S(N)(=O)=O)c(F)c3)ccc2F)o1 [NCGC00389082-01] | 154
* O=C(O)C1=NC(C(=O)O)CC(/C=C/N2c3cc(O)c(OC4OC(CO)C(O)C(O)C4O)cc3CC2C(=O)O)=C1 (stereo not shown) [NCGC00346734-01] | -18
* Cc1ccc(S(=O)(=O)Nc2cnccc2C(=O)Nc2nc(-c3nc4ccccc4s3)cs2)cc1.O=C(O)C(F)(F)F [NCGC00343736-01] | -16
* CCC(=O)NC(c1cccs1)c1cc([N+](=O)[O-])c2cccnc2c1O (stereo not shown) [NCGC00182956-10] | -17
* Cc1c(C)n(Cc2ccc(-c3ccccc3C(=O)O)cc2)c2ccc(C(=O)N[C@@H](C)c3ccc([N+](=O)[O-])cc3)cc12 [NCGC00347955-04] | 95

Where these numbers come from: paper PMC11249646
